Tested on: ESO26 (Esophageal Adenocarcinoma)
Test: Bliss excess, mean over the matrix (fraction); higher = more synergy;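 also: after 72 h of two-drug dosing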
Measured quantity: Bliss excess

For the molecule CN(CCO)CC[C@H](CSc1ccccc1)Nc1ccc(S(=O)(=O)NC(=O)c2ccc(N3CCC([C@@H](O)c4ccccc4-c4ccc(Cl)cc4)CC3)cc2)cc1S(=O)(=O)C(F)(F)F [AZD4320] + C[C@@H]1COCCN1C2=NC(=NC(=C2)C3(CC3)[S@](=N)(=O)C)C4=C5C=CNC5=NC=C4 [AZD6738] (first compound max 1 µM, 7x7, partner max 10 µM) , what Bliss excess is on record?
-0.0439

###

Test system: NCI-H1651 (Lung Adenocarcinoma)
Assay: Bliss excess, mean over the matrix (fraction); higher = more synergy
Measured quantity: Bliss excess

* CCN(CCO)CCCOc1ccc2c(Nc3cc(CC(=O)Nc4cccc(F)c4)[nH]n3)ncnc2c1 [AZD2811] + O=C(c1cc(Cc2n[nH]c(=O)c3ccccc23)ccc1F)N1CCN(C(=O)C2CC2)CC1 [Olaparib] (first compound max 1 µM, 7x7, partner max 10 µM) | 0.0136

For the compound COc1nnc2ccc(N3CCC(c4ccc(OCCN5CCN(C)C(=O)[C@H]5C)cc4)CC3)nn12 [AZD5153] + C=CCn1c(=O)c2cnc(Nc3ccc(N4CCN(C)CC4)cc3)nc2n1-c1cccc(C(C)(C)O)n1 [AZD1775] (first compound max 1 µM, partner max 1 µM) , what Bliss excess is on record?
0.0305
